All values here come from ChEMBL document CHEMBL4689842.

Task for the reader: assign each of the following compounds its reported Population Healthy Nuclei (%).
- System: U2OS
- Procedure Text: Multiplex assay against U2OS
- Assay type: toxicity, cell-based
- Measurement Context: human, 24 h, 10 µM, compound concentration 10 uM, replicate 2
Numbers only, in %.

Compound	Study System	Population Healthy Nuclei (%)
CN(C)CCOc1ccc(-c2nc(-c3ccncc3)c(-c3ccc4c(c3)CC/C4=N\O)[nH]2)cc1	U2OS	89
O=C(O)c1ccc2cc(-c3ccc(O)c(C45CC6CC(CC(C6)C4)C5)c3)ccc2c1	U2OS	81

Query :: Return Population Healthy Nuclei (%) (reported value) for this compound: CCC(=O)O[C@]1(C(=O)SCF)[C@H](C)C[C@H]2[C@@H]3C[C@H](F)C4=CC(=O)C=C[C@]4(C)[C@@]3(F)[C@@H](O)C[C@@]21C [FLUTICASONE PROPIONATE]
Result :: 78
